Source: patent US4992450A

Target: kappa receptor (Cavia porcellus)
Construct: guinea pig cortex for the kappa site; from tissue; host or cells: guinea pig cortex, frozen pellet fraction
Sequence (P41144 whole entry): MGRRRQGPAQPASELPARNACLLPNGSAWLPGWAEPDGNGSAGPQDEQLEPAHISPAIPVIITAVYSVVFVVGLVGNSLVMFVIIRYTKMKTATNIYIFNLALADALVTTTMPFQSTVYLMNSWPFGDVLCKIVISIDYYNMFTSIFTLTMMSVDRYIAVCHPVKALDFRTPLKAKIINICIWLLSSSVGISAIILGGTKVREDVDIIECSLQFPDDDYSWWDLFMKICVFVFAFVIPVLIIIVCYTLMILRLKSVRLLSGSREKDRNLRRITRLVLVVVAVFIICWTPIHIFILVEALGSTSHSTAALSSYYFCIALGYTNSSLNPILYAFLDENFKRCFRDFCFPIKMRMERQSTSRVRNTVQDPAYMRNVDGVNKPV
Assay: Opioid receptor binding displacement assay, kappa site (guinea pig cortex, 3H ligand)
Parameters: species or system male Hartley guinea pigs
Structures can show the parent of a compound that is named as a salt.
readout type: pKi
Here pKi is given on a logarithmic scale as minus log10 of the concentration in mol/L.

Using the record for CC1CN(CC2CCCCC2)CCC1(C)c1cccc(O)c1 (centres unmarked) [Example 10, hydrochloride] , state its measured pKi.
7.55

Using the record for CC1CN(CCCC2CCCCC2)CCC1(C)c1cccc(O)c1 (centres unmarked) [Example 11, hydrochloride] , state its measured pKi.
8.63

Using the record for C[C@H]1CN(CCC2C=CCC2)CC[C@@]1(C)c1cccc(O)c1 (relative stereo) [Example 7, hydrochloride] , state its measured pKi.
8.98

Using the record for C=C(C)CCCN1CCC(C)(c2cccc(O)c2)C(C)C1 (centres unmarked) [Example 3, hydrochloride] , state its measured pKi.
7.86

Using the record for C[C@H]1CN(CCC(=O)C2CCCC2)CC[C@@]1(C)c1cccc(O)c1 (relative stereo) [Example 17, hydrochloride] , state its measured pKi.
9.26

Using the record for CC(C)CCN1CCC(C)(c2cccc(O)c2)C(C)C1 (centres unmarked) [Example 16, hydrochloride] , state its measured pKi.
7.15

Using the record for CC1CN(CCCc2ccsc2)CCC1(C)c1cccc(O)c1 (centres unmarked) [Example 41, hydrochloride] , state its measured pKi.
7.99

Using the record for CC(C)CCCN1CCC(C)(c2cccc(O)c2)C(C)C1 (centres unmarked) [Example 15, hydrochloride] , state its measured pKi.
8.03
